# Tested on: LOX IMVI
# procedure text: NCI tumour cell line growth inhibition, 48 h
Activity calls are given as the source filed them. Cut-off read from the data, not from the text of the source: active = GI50 up to about 1.1 µM and inactive = higher.
Please reply with one of these outcomes: active, inactive

compound	assigned category
C/C(=C\CNc1nc(Cl)nc2[nH]cnc12)CO	inactive
Cc1c2ccccc2c(C)c2c3c(ccc12)C(=O)C=CC3=O	inactive
O=C(CN1CCOCC1)NC1=Nc2ncccc2C(=O)NN1	inactive

Short answer needed: outcome of this test for C=C(C)C(=O)OC1CC2=CC(CC3(C)OC3C3OC(=O)C(=C)C13)OC2=O (stereo not given) ?
inactive

Record request — test call for CNCC(SC)c1ccc(O)c(O)c1 (stereo not given)
inactive

* * *

# System: SK-MEL-5
# procedure text: NCI tumour cell line growth inhibition, 48 h
Active and inactive are the calls of the source. Rule as the data show it: active = GI50 up to about 1.1 µM and inactive = higher.
I'd be grateful if you could share measured GI50 for these entries.

Record GI50 for all entries; do not skip any.
1. C/C(=N\NC(=S)Nc1ccc(C(=O)O)cc1)c1ccccn1
2. CCOC(=O)N(C)CCC1CC=CC(=O)C1c1cccc(OC)c1OC (stereo not given)

["16.9 µM (inactive)", "9.53 µM (inactive)"]

Data provenance: ChEMBL document CHEMBL1201862
